Taken from patent US10231954B2.

- testedOn: UniProt:P53350
- Sequence (P53350 whole entry, species assumed): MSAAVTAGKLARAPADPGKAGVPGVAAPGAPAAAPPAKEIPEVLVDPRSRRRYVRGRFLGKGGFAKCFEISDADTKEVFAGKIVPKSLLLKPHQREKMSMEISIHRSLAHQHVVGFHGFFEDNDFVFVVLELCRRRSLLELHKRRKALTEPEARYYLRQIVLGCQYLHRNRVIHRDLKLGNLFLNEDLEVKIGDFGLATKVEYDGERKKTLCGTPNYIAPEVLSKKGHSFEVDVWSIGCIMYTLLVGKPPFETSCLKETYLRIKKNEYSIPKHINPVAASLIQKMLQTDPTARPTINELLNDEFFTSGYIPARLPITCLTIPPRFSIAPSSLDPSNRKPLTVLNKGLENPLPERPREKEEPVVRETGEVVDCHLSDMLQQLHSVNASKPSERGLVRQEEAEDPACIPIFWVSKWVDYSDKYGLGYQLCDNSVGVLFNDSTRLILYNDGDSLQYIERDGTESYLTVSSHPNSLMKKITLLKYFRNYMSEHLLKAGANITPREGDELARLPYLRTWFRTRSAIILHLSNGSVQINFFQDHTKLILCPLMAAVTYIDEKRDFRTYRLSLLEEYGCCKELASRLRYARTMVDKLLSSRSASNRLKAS
- assayText: Kinase profiling PLK1
- Assay type: biochemical
- testParameters: 100 micromolar inhibitor concentration; 100 is no change
Values of residual kinase activity, PLK1 greater than or equal to 80 map to rule met; values below map to rule not met.

As a guide, the following entries are already answered.
{"compound": "O=C(Nc1nc2cc(O)ccc2s1)c1ccccn1", "answerLabel": "rule met"}
{"compound": "O=C(Nc1nc2cc(O)ccc2s1)c1ccccc1", "answerLabel": "rule met"}
{"compound": "COc1ccc2nc(NC(=O)c3ccccc3)sc2c1", "answerLabel": "rule met"}
{"compound": "O=C(Nc1nc2cc(O)ccc2s1)c1ccncc1", "answerLabel": "rule not met"}
{"compound": "O=C(Nc1nc2ccc(C(F)(F)F)cc2s1)c1ccccc1", "answerLabel": "rule met"}

Exercise: Does the reported residual kinase activity, PLK1 for O=C(Nc1nc2ccc(O)cc2s1)c1ccccc1 fall at or above the 80 mark?
Solution: rule not met

Exercise: Does the reported residual kinase activity, PLK1 for CC(=O)Nc1nc2ccc(F)cc2s1 fall at or above the 80 mark?
Solution: rule met

Exercise: Does the reported residual kinase activity, PLK1 for COc1ccc2sc(NC(=O)c3ccccc3)nc2c1 fall at or above the 80 mark?
Solution: rule not met

###

- testedOn: STK33 (Homo sapiens)
- Sequence (Q9BYT3 whole entry, species assumed): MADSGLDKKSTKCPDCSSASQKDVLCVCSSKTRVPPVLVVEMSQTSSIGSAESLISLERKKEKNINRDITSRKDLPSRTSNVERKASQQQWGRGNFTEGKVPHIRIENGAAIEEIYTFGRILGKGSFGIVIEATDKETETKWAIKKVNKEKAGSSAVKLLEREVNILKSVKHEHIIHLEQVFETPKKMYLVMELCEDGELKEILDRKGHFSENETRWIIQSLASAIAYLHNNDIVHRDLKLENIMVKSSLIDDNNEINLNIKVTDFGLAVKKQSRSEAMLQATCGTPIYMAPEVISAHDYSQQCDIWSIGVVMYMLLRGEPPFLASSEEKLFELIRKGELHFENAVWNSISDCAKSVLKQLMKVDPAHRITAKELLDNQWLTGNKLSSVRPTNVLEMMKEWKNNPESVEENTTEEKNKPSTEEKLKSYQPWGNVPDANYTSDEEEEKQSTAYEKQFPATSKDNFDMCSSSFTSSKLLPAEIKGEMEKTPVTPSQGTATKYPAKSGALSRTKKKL
- assayText: Kinase profiling STK33
- Format: biochemical
- testParameters: 100 micromolar inhibitor concentration; 100 is no change
measuredParameter: residual kinase activity, STK33
// no unit, no text: just the number

Known residual kinase activity, STK33 results, listed for orientation:
{"molecule": "CC(=O)NC(C)C(=O)Nc1nc2ccc(C(F)(F)F)cc2s1 (stereo not drawn) [Compound 03-80]", "numericResult": 60}
{"molecule": "COc1ccc2sc(NC(=O)c3ccc(NC(C)=O)cc3)nc2c1 [MS:LY-2-77]", "numericResult": 99}

Exercise: Which residual kinase activity, STK33 is listed for CC(=O)Nc1nc2ccccc2s1 [Compound 03-32] ?
Solution: 104

Exercise: Which residual kinase activity, STK33 is listed for O=C(Nc1nc2cc(O)ccc2s1)c1ccncc1 [Compound 03-11] ?
Solution: 77

Exercise: Which residual kinase activity, STK33 is listed for O=C(Nc1nc2cc(O)ccc2s1)c1cccnc1 [Compound 03-33] ?
Solution: 70

Exercise: Which residual kinase activity, STK33 is listed for O=C(Nc1nc2ccc(O)cc2s1)c1ccccn1 [Compound 03-12] ?
Solution: 65

###

- testedOn: S6K1 (Homo sapiens, UniProt P23443)
- Sequence (P23443 whole entry, species assumed): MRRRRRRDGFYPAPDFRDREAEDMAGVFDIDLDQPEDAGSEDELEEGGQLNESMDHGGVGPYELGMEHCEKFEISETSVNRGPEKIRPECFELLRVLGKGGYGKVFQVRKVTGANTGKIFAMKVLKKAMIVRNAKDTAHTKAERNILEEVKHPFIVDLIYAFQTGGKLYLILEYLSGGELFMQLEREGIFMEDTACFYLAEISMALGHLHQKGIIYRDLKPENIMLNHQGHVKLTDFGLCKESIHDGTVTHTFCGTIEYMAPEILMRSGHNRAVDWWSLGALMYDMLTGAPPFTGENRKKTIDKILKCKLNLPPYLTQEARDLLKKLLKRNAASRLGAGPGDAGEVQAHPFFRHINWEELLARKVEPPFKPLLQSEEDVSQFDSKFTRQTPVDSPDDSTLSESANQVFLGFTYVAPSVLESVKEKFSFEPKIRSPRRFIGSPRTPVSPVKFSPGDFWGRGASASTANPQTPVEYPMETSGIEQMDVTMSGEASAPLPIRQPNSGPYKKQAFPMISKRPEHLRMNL
- assayText: Kinase profiling S6K1
- Type: biochemical
- testParameters: 100 micromolar inhibitor concentration; 100 is no change
measuredParameter: residual kinase activity, S6K1
// no unit, no text: just the number

{"molecule": "O=C(Nc1nc2ccc(O)cc2s1)c1ccccn1", "residual kinase activity, S6K1": 50}
{"molecule": "COc1ccc2sc(NC(=O)c3ccc(NC(C)=O)cc3)nc2c1", "residual kinase activity, S6K1": 94}
{"molecule": "O=C(Nc1nc2ccc(F)cc2s1)c1ccccc1", "residual kinase activity, S6K1": 79}
{"molecule": "CC(=O)Nc1ccccc1C(=O)Nc1nc2ccc(O)cc2s1", "residual kinase activity, S6K1": 12}
{"molecule": "O=C(Nc1nc2ccc(C(F)(F)F)cc2s1)c1ccccc1", "residual kinase activity, S6K1": 86}
{"molecule": "O=C(Nc1nc2cc(O)ccc2s1)c1ccccc1", "residual kinase activity, S6K1": 42}
{"molecule": "O=C(Nc1nc2ccc(O)cc2s1)c1ccncc1", "residual kinase activity, S6K1": 38}
{"molecule": "CC(=O)NC(C)C(=O)Nc1nc2ccc(C(F)(F)F)cc2s1 (stereo not shown)", "residual kinase activity, S6K1": 97}
{"molecule": "CC(=O)Nc1cccc(C(=O)Nc2nc3cc(O)ccc3s2)c1", "residual kinase activity, S6K1": 14}

Exercise: Which residual kinase activity, S6K1 is listed for CC(=O)Nc1nc2ccc(F)cc2s1 ?
Solution: 67
